# assayed_target: BRAF V600E (Homo sapiens, UniProt P15056, V600E)
# Construct: expressed in transfected cells
# Sequence (P15056 whole entry V600E): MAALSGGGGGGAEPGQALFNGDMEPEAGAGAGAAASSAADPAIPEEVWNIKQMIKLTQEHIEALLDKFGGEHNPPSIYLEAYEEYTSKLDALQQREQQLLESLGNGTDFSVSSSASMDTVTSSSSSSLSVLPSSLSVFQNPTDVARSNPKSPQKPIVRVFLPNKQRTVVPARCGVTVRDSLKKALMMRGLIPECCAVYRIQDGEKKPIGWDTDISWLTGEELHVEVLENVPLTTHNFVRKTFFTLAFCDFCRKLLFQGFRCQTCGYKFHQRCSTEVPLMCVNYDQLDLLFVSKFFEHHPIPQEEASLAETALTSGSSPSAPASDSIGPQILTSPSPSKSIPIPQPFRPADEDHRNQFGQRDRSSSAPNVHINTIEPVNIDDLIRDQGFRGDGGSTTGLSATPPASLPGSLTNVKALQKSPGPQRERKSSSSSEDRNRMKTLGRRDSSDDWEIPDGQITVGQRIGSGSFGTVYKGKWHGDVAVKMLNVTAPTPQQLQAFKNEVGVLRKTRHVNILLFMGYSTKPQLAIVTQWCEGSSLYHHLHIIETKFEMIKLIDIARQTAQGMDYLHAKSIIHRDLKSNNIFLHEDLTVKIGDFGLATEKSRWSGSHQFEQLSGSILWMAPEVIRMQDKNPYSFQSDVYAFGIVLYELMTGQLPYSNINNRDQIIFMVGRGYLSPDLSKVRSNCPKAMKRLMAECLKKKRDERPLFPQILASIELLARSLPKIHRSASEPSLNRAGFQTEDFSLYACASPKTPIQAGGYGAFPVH
# method: Cellular assay of target protein degradation, T-Rex 293 cells stably transfected with HA-BRAF_V600E (HA immunofluorescence, high content imaging)
# Type: cell-based
# assay_context: half maximal degradation, T-Rex 293 HA-BRAF V600E; read-out: BRaf V600E DC50
quantity_measured: DC50

What DC50 value was documented for this compound, CCCS(=O)(=O)Nc1ccc(F)c(C(=O)c2c[nH]c3ncc(-c4ccc(N5CCC(CN6CC7(C6)CN(c6ccc8c(c6)CN([C@H]6CCC(=O)NC6=O)C8=O)C7)CC5)cc4)cc23)c1F [Compound 228] ? 5 to 50 nM
